Target: AHR (Mus musculus, UniProt P30561)
Sequence (P30561 1-848 P471L/N533S/M589L): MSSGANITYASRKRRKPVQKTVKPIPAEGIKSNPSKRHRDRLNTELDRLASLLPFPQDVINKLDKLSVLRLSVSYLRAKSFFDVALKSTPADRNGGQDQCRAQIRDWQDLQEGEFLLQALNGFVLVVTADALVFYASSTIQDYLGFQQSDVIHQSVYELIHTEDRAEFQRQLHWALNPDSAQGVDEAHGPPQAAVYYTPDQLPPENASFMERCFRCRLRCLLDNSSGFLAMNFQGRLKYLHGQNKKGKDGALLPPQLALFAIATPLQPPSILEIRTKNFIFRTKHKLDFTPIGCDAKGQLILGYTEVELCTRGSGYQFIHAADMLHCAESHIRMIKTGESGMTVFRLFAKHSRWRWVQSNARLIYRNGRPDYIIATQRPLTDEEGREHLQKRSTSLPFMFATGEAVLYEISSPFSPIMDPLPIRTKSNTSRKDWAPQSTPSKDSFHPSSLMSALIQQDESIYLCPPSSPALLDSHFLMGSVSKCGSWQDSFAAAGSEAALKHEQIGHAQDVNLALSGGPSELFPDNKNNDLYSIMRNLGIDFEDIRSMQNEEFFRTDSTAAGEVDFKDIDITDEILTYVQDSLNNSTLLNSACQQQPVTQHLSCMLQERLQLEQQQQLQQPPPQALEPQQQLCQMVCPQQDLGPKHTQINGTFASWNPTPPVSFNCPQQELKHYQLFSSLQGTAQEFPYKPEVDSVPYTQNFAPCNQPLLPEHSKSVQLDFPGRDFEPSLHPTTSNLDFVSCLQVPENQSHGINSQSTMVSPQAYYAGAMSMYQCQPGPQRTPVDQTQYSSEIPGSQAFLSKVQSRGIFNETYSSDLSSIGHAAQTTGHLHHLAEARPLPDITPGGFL
Test: In vitro assay 3: antagonism in mouse cell line (AHR transactivation, firefly luciferase reporter, kynurenic acid prestimulated)
Type: cell-based
Conditions: mouse Hepa 1c1c7 cells, 200 μM kynurenic acid, 20 hours, read-out: AHR Antagonism Mouse IC50
readout_type: IC50 (nM)

Past entries and their recorded results:
molecule | units_symbol | IC50
COc1cccc(-c2nc3c4ccccc4nc(N[C@@H](C(=O)O)C(C)C)n3n2)c1 | nM | 17
CSc1ccc(-c2nc3c4ccccc4nc(N[C@@H]4CNCCNC4=O)n3n2)cc1 | nM | 6.94
CN(C)c1cccc(-c2nc3c4ccccc4nc(N[C@@H]4CNCCNC4=O)n3n2)c1 | nM | 13.6
O=C1NCCCCCC1Nc1nc2ccccc2c2nc(-c3cccc(OC(F)(F)F)c3)nn12 (stereo not shown) | nM | 11.3
Cc1cscc1-c1nc2c3ccccc3nc(N[C@@H]3CCCCNC3=O)n2n1 | nM | 0.646
O=C1NCCCC[C@H]1Nc1nc2ccccc2c2nc(-c3cccc(OC(F)(F)F)c3)nn12 | nM | 1.97

[I] O=C1NCCNC[C@H]1Nc1nc2ccccc2c2nc(-c3ccc(C(F)(F)F)cc3)nn12
[II] COc1ccc(-c2nc3c4cccc(N5CCOCC5)c4nc(N[C@@H]4CCCCNC4=O)n3n2)cc1
[III] O=C1NCCCC[C@H]1Nc1nc2cccc(Br)c2c2nc(-c3ccc(F)cc3)nn12
[IV] CC[C@@H](Nc1nc2ccccc2c2nc(-c3ccc(C#N)cc3)nn12)C(N)=O
input: Order the records so the highest IC50 appears first and the lowest last. The labels, placed in the requested order, form the answer.
output: II, III, I, IV
